Origin of measurements: PubChem BioAssay AID1159580

experiment: chemical genetic growth profiling, strain panel (AID 1159580);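 further: tested at 20 µM; growth read once vehicle control cultures reached saturation at 30 °C; 1 = growth at the plate median or of vehicle wells; lower values mean less growth of the strain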; conditions: S. cerevisiae deletion strains, growth OD, locus YNL248C, strain rpa49, hits give low values
About 2,000 (36%) of roughly 5,500 compounds were called active. Another 18% or so got no clear call; they are omitted. This is one part of the list.
Answer each item with its documented normalized growth.
Answers are plain numbers.

• CC(=O)N[C@@H](CC(=O)O)C(=O)O = 0.91
• Cn1nnnc1SCC1=C(C(=O)O)N2C(=O)C(NC(=O)C(OC=O)c3ccccc3)C2SC1 (stereo unspecified) = 0.986
• CCS(=O)(=O)CCn1c([N+](=O)[O-])cnc1C = 1.01
• CC(=O)Oc1ccc2c(c1)CCC1C2CC[C@@]2(C)C1CC[C@@H]2OC(C)=O (stereo partly specified) = 0.986
• CC(=O)Oc1ccc2c(c1)CCC1C2CCC2(C)C1CC(OC(C)=O)C2OC(C)=O (stereo unspecified) = 0.991

Switching to the query record.
Which value of normalized growth has been reported for CC(=O)O[C@H]1CC2CCC3C(CC[C@@]4(C)C3C[C@H]([N+]3(C)CCCCC3)[C@@H]4OC(C)=O)[C@@]2(C)C[C@@H]1[N+]1(C)CCCCC1 (stereo partly specified) in the records?
0.988
